System: Plasmodium berghei
Test: Screen against P. berghei liver stage (PbLuc), transformed with Luciferase, at 10uM
Assay type: functional, HepG2
Conditions: tested at 10 uM
In all, about 69,000 compounds went through this assay and about 8,600 (12%) showed an effect of 50% or more. This is one part of a sample in which strong results are shown more often than they occur.

MOLECULE: FC(F)(F)c1ccnc(N2C[C@H]3CCN(c4cccnc4)C[C@H]3C2)n1
UNIT_OF_MEASURE: %
INHIBITION: 5.96
--
MOLECULE: Cc1oncc1C(=O)N1CC2CC1(C(=O)N1CCCC1)C2
UNIT_OF_MEASURE: %
INHIBITION: -15.9
--
MOLECULE: c1cncc(N2CC[C@@H]3CN(CC4CC4)C[C@@H]3C2)c1
UNIT_OF_MEASURE: %
INHIBITION: 57.4
--
MOLECULE: O=C(c1ccncc1F)N1CC2CC1(C(=O)N1CCCC1)C2
UNIT_OF_MEASURE: %
INHIBITION: 58
--
MOLECULE: Cn1ccnc1C1CCCN(C(=O)c2ccncc2F)C1 (stereo unspecified)
UNIT_OF_MEASURE: %
INHIBITION: 42.5
--
MOLECULE: O=C(CC1CCCC1)N1C[C@@H]2CCN(c3cccnc3)C[C@@H]2C1
UNIT_OF_MEASURE: %
INHIBITION: 60.7
